ASSAY_OVERVIEW: probe aLefty2 binding to arrayed compounds – biochemical, biotinylated probe, 635/667 nm fluorescence, primary screen (AID 1094);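 further: score merges spot fluorescence near 667 nm with spot signal-to-noise ratio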
CONDITIONS: small-molecule microarray, higher = more signal
Exercise: for every item that follows, state its recorded composite z-score.
Write no unit; give the number alone.

Task: I'd like to know its composite z-score. The compound in question is "CC(=CC1CCCCC1)[C@@H](NC(=O)c1cccnc1)c1ccc(-c2ccccc2)cc1"
Result: -0.0042

Task: I'd like to know its composite z-score. The compound in question is "CCCC=C(CCC)[C@@H](NC(=O)OCC(C)C)c1ccccc1"
Result: 0.678

Task: I'd like to know its composite z-score. The compound in question is O=C1NC(=O)C2C1C=CC(C(O)C=Cc1ccc([N+](=O)[O-])cc1)N2Nc1ccc(Cl)cc1Cl (centres undefined)
Result: 0.729

Task: I'd like to know its composite z-score. The compound in question is "O=C1C[C@@](C(=O)NCc2ccccc2)(c2ccc([N+](=O)[O-])cc2)[C@@H](c2ccc(CO)cc2)N1CC12CC3CC(CC(C3)C1)C2"
Result: -0.0965

---

Tested on: Human papillomavirus type 1a protein E7 (residues 44-93)
ASSAY_OVERVIEW: small molecules binding HPV E7 44-93 – biochemical, small-molecule microarray, residues 44-93, 635 nm fluorescence, primary screen (AID 1108);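 further: E7 fragment applied at 1 µg/mL in TBST for 1 h at 4 C; score combines spot fluorescence with its signal to noise ratio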
CONDITIONS: fluorescence 635 nm, higher = more signal
Returns one of 1 (yes) or 0 (no); 1 (yes) when composite z-score is >= 1.

Task: Please check the record "C#CCNCc1ccccc1" and state if its composite z-score is at or above 1.
Result: 0 (no)

Task: Please check the record "CC(=CC1CCCCC1)[C@@H](NC(=O)c1cccnc1)c1ccc(-c2ccccc2)cc1" and state if its composite z-score is at or above 1.
Result: 0 (no)

Task: Please check the record "COCCOC(=O)N1C(=O)[C@@]2(c3cc(C#Cc4ccc(OC)cc4)ccc31)[C@H](c1ccc(O)cc1)N1[C@H](c3ccccc3)[C@H](c3ccccc3)OC(=O)[C@H]1[C@@H]2C(=O)Nc1nc2ccccc2s1" and state if its composite z-score is at or above 1.
Result: 1 (yes)

Task: Please check the record C=CCC(OC(C)=O)[C@@H]1[C@@H](N(Cc2cc3ccccc3o2)C(=O)Cc2ccc(OC)cc2)c2cc(OCCCO)ccc2N1C(=O)c1ccc2ccccc2c1 (stereo partly specified) and state if its composite z-score is at or above 1.
Result: 0 (no)

Task: Please check the record "CCOC(=O)C1=C[C@@H](C(C)C)N(S(=O)(=O)c2ccc(C)cc2)[C@H]1c1ccccc1F" and state if its composite z-score is at or above 1.
Result: 1 (yes)

Task: Please check the record CCC(CC)C(O)C1C=CC2C(=O)N(c3ccccc3)C(=O)C2N1Nc1ccccc1 (stereo unspecified) and state if its composite z-score is at or above 1.
Result: 1 (yes)

Task: Please check the record O=C1C2C=CC(C(O)c3ccc(F)cc3)N(Nc3ccc([N+](=O)[O-])cc3)C2C(=O)N1c1ccccc1 (stereo unspecified) and state if its composite z-score is at or above 1.
Result: 0 (no)

Task: Please check the record "CC#CC(=O)Oc1ccc(Br)cc1C=CC(=O)OCC" and state if its composite z-score is at or above 1.
Result: 1 (yes)

Task: Please check the record "COc1ccc([Si](C)(C)[C@@H]2[C@@H](CC(=O)N3Cc4ccccc4C[C@H]3CO)O[C@]3(C(=O)N(Cc4cccc(N5CCC5=O)c4)c4ccccc43)[C@H]2C)cc1" and state if its composite z-score is at or above 1.
Result: 1 (yes)

Task: Please check the record "COc1ccccc1CN1C(=O)c2ccccc2[C@@]2(Cc3ccccc3N(CCCN(C)C)C2=O)[C@@H]1c1ccc(CO)cc1" and state if its composite z-score is at or above 1.
Result: 0 (no)

Task: Please check the record "O=C1O[C@@H](c2ccccc2)[C@@H](c2ccccc2)N2[C@@H](c3ccc(OCCO)cc3)[C@]3(C(=O)Nc4ccc(C#CC5=CCCCC5)cc43)[C@@H](C(=O)N3CCCCCCC3)[C@H]12" and state if its composite z-score is at or above 1.
Result: 1 (yes)

Task: Please check the record "NC(=O)NCC#Cc1ccc2c(c1)[C@]1(C(=O)N2)[C@H](C(=O)O)[C@H]2C(=O)O[C@H](c3ccccc3)[C@H](c3ccccc3)N2[C@@H]1c1ccc(O)cc1" and state if its composite z-score is at or above 1.
Result: 0 (no)

Task: Please check the record "O=C(NC1CC1)[C@@H]1c2ccccc2C(=O)N(Cc2cc(F)cc(C(F)(F)F)c2)[C@H]1c1ccc(CO)cc1" and state if its composite z-score is at or above 1.
Result: 0 (no)

Task: Please check the record "CCCCC(=C=CC[C@@H](O)c1cccc(OCCO)c1)C[C@@H](O)c1ccccn1" and state if its composite z-score is at or above 1.
Result: 1 (yes)

Task: Please check the record "CCCC=C(CCC)[C@@H](NS(=O)(=O)c1ccc(Cl)cc1)c1ccc(C(=O)OC)cc1" and state if its composite z-score is at or above 1.
Result: 1 (yes)

Task: Please check the record CCOc1ccc(N2C(=O)CSC2c2cccc([N+](=O)[O-])c2)cc1 (stereo unspecified) and state if its composite z-score is at or above 1.
Result: 1 (yes)

Task: Please check the record "NCCCCCNC(=O)[C@H]1C[C@H]2C(=O)N3CCC[C@H]3C(=O)N2[C@H]1c1ccc(O)cc1" and state if its composite z-score is at or above 1.
Result: 1 (yes)

Task: Please check the record "COCCOC(=O)N1C(=O)[C@@]2(c3cc(C#CC4(O)CCCCCC4)ccc31)[C@H](C(=O)Nc1nc3ccccc3s1)[C@H]1C(=O)O[C@H](c3ccccc3)[C@H](c3ccccc3)N1[C@@H]2c1ccc(OCCO)cc1" and state if its composite z-score is at or above 1.
Result: 1 (yes)

Task: Please check the record O=C1NC(=O)C2C1C=CC(C(O)c1ccc(I)cc1)N2Nc1ccc(Cl)cc1Cl (stereo unspecified) and state if its composite z-score is at or above 1.
Result: 1 (yes)

Task: Please check the record N#Cc1ccc(C(O)C2C=CC3C(=O)N(c4ccccc4)C(=O)C3N2Nc2ccccc2F)cc1 (stereo unspecified) and state if its composite z-score is at or above 1.
Result: 1 (yes)

Task: Please check the record C=CCN(Cc1ccccc1)C(=O)C(c1cccs1)N(C(=O)/C=C\C(=O)O)c1ccc(CCOCCO)cc1 (stereo unspecified) and state if its composite z-score is at or above 1.
Result: 0 (no)

Task: Please check the record "COC(=O)[C@@]1(Cc2ccc(OC)cc2)[C@H]2c3cc(C(=O)N4CCCC4)n(CCSCCO)c3C[C@H]2CN1C(=O)c1ccccc1" and state if its composite z-score is at or above 1.
Result: 1 (yes)

Task: Please check the record "C=CC[C@]1(C(=O)NCc2ccccc2)N=C(c2ccc(OCCCO)cc2)O[C@H]1c1ccccc1CN=[N+]=[N-]" and state if its composite z-score is at or above 1.
Result: 1 (yes)

Task: Please check the record "C=C(CCCC)/C(=C/C[C@H](OC(=O)c1ccncc1)c1ccc(OCCO)cc1)c1cc(C(=O)OC)ccc1OC" and state if its composite z-score is at or above 1.
Result: 1 (yes)

Task: Please check the record "CN(C)CCCC[C@@H]1NC(=O)[C@H]2C[C@@H](C(=O)NCCCCCN)[C@@H](c3cccc(OCCO)c3)N2C1=O" and state if its composite z-score is at or above 1.
Result: 0 (no)

Task: Please check the record "COCCOC(=O)N1C(=O)[C@@]2(c3cc(C#CC4=CCCCC4)ccc31)[C@H](c1ccc(OCCO)cc1)N1[C@H](c3ccccc3)[C@H](c3ccccc3)OC(=O)[C@H]1[C@@H]2C(=O)N1CCc2cc(OC)c(OC)cc2C1" and state if its composite z-score is at or above 1.
Result: 1 (yes)

Task: Please check the record "COC(=O)c1c(CC[C@@H](CO)NC(=O)N[C@H](Cc2ccccc2)Cn2cc(-c3ccccn3)nn2)oc(C(C)=O)c1C(=O)OC" and state if its composite z-score is at or above 1.
Result: 0 (no)

Task: Please check the record "COc1ccc([C@H]2OC[C@@H]3CCC(=O)N32)cc1" and state if its composite z-score is at or above 1.
Result: 0 (no)

Task: Please check the record "CC(=O)NCCCC[C@@H]1NC(=O)[C@H]2C[C@@H](C(=O)O)[C@@H](c3ccc(O)cc3)N2C1=O" and state if its composite z-score is at or above 1.
Result: 1 (yes)

---

ASSAY_OVERVIEW: blockers of DNA damage checkpoint Chk1 activation – imaging, HeLa, hydroxyurea, phospho-Chk1 antibody, percent positive cells, primary screen (AID 1186)
CONDITIONS: hydroxyurea-induced phospho-Chk1 immunofluorescence imaging, higher = more signal
VALUE_TYPE: z-score
Write no unit; give the number alone.

Task: I'd like to know its z-score. The compound in question is "CN(C)CCCCCCNC(=O)[C@@H]1C[C@@H]2C(=O)N[C@@H](CCCC[N+](C)(C)C)C(=O)N2[C@@H]1c1ccc(O)cc1"
Result: 0.702

Task: I'd like to know its z-score. The compound in question is "CC(C)OC(=O)C=C1C[C@@H](c2cccc(Cl)c2)O[C@@H](c2cccc(Cl)c2)O1"
Result: 0.193

Task: I'd like to know its z-score. The compound in question is "COC(=O)[C@H](Cc1ccccc1)N[C@H](/C=C/C1CC1)[C@@H](O)Cc1ccccc1"
Result: -0.748

Task: I'd like to know its z-score. The compound in question is O=C1OCC=C[C@H]2OC34C=CCN(Cn5nnc6ccccc65)C(=O)[C@H]3N(CCCCCO)C(=O)[C@@H]4[C@@H]12 (some centres undefined)
Result: -0.288
